assay_protocol: gradient 5% acetonitrile 3 min, to 50% in 2 min, to 85% in 15 min, held 3 min, 100 µL/min
condition_info: column: Zorbax Extend-C18 2.1 x 50 mm; eluents: water / acetonitrile, 0.1% formic acid
Measured RP-LC retention time of individual entries
value_kind: RP-LC retention time (s)

- test_smiles: "O=S(=O)(Nc1ccc(Cl)cc1)c1c[nH]c2ncccc12"
  value_kind: "RP-LC retention time"
  recorded_measurement: 750
- test_smiles: "O=C(CSCC(=O)c1ccccc1)c1ccccc1"
  value_kind: "RP-LC retention time"
  recorded_measurement: 880
- test_smiles: "CC(C)n1cnc(S(=O)(=O)N2CCC(C(=O)Nc3ccc(OC(F)(F)F)cc3)CC2)c1"
  value_kind: "RP-LC retention time"
  recorded_measurement: 888
- test_smiles: "CCOc1ccc(Cc2nc(-c3ccc4c(c3)N(CC)C(=O)CO4)no2)cc1OCC"
  value_kind: "RP-LC retention time"
  recorded_measurement: 1070
- test_smiles: "CC(C)Cn1c(=O)c2cc(C(=O)NCc3ccncc3)nn2c2ccccc21"
  value_kind: "RP-LC retention time"
  recorded_measurement: 657
- test_smiles: "Cc1onc(-c2ccccn2)c1C(=O)NCCc1c[nH]c2ccc(Cl)cc12"
  value_kind: "RP-LC retention time"
  recorded_measurement: 1000
- test_smiles: "COc1ccc(C[C@@H]2NC[C@@H](O)[C@@H]2OC(C)=O)cc1"
  value_kind: "RP-LC retention time"
  recorded_measurement: 600
- test_smiles: "Cc1ccc(OCC(=O)Nc2cc3c(cc2N2CCOCC2)n(C)c(=O)c(=O)n3C)c(C)c1"
  value_kind: "RP-LC retention time"
  recorded_measurement: 787
- test_smiles: "COc1cccc(OC)c1C(=O)Nc1nnc(SCc2nnc(-c3ccccc3)o2)s1"
  value_kind: "RP-LC retention time"
  recorded_measurement: 832

---

assay_protocol: gradient 5% acetonitrile 3 min, to 50% in 2 min, to 85% in 15 min, held 3 min, 100 µL/min
condition_info: column: Zorbax Extend-C18 2.1 x 50 mm; eluents: water / acetonitrile, 0.1% formic acid
Label scheme for RP-LC retention time: c1: < 700 s; c2: ≥ 700 s and < 900 s; c3: ≥ 900 s

- molecule: "O=C(Cn1cnc2c(sc3nc(-c4ccccc4)ccc32)c1=O)Nc1ccc2c(c1)OCCO2"
  category_label: "c3"
- molecule: "CC(C(=O)NCCc1c[nH]c2ccccc12)C1CCN(S(=O)(=O)c2cccs2)CC1 (centres undefined)"
  category_label: "c2"
- molecule: "Cc1noc(C2(NC(=O)c3ccc(C)s3)CCCCC2)n1"
  category_label: "c2"
- molecule: "O=C(C1CCN(S(=O)(=O)N2CCOCC2)CC1)N1CCN(Cc2noc3ccccc23)CC1"
  category_label: "c1"
- molecule: "O=C(NCc1[nH]nc2ccccc12)C1CC(=O)N(c2cccc(Cl)c2)C1 (centres undefined)"
  category_label: "c2"
- molecule: "COc1ccc(N2CC(c3noc(-c4ccc(Cl)cc4)n3)CC2=O)cc1OC (centres undefined)"
  category_label: "c3"

---

Measured RP-LC retention time of individual entries
assay_protocol: gradient 5% acetonitrile 3 min, to 50% in 2 min, to 85% in 15 min, held 3 min, 100 µL/min
condition_info: column: Zorbax Extend-C18 2.1 x 50 mm; eluents: water / acetonitrile, 0.1% formic acid
value_kind: RP-LC retention time

- molecule: "COCCc1noc(C2CN(C(=O)c3ccsc3)C2)n1"
  value_kind: "RP-LC retention time"
  recorded_measurement: "654 s"
- molecule: "COCCOc1nc(N)c2[nH]c(=O)n(Cc3ccccc3)c2n1"
  value_kind: "RP-LC retention time"
  recorded_measurement: "676 s"
- molecule: "COc1ccc(-c2nnc(-c3cccc(S(=O)(=O)N4CCOCC4)c3)o2)cc1OC"
  value_kind: "RP-LC retention time"
  recorded_measurement: "813 s"
- molecule: "O=C(c1cccs1)N1CCOc2ccc(N3CCCC3)cc2C1"
  value_kind: "RP-LC retention time"
  recorded_measurement: "825 s"
- molecule: "CCOC(=O)N1CCN(C(=O)CSCC(=O)Nc2nc(-c3ccc(OC)cc3)cs2)CC1"
  value_kind: "RP-LC retention time"
  recorded_measurement: "841 s"
- molecule: "Cc1ccc(-c2noc(Cc3nc(-c4ccccc4)cs3)n2)cc1"
  value_kind: "RP-LC retention time"
  recorded_measurement: "1260 s"
- molecule: "O=C(Nc1ccccc1F)N1CCN(Cc2nc3cc(Cl)ccc3o2)CC1"
  value_kind: "RP-LC retention time"
  recorded_measurement: "737 s"
- molecule: "COCCN1C(=O)[C@H]2CN(Cc3cc(Br)ccc3OC)C[C@H]2C1=O"
  value_kind: "RP-LC retention time"
  recorded_measurement: "633 s"
- molecule: "COc1ccc(CN2CCC(C3CCNC3)CC2)c(OC)c1 (stereo not given)"
  value_kind: "RP-LC retention time"
  recorded_measurement: "548 s"
- molecule: "Cc1cc(C2CCCN2C(=O)c2cc(-c3ccccc3F)no2)no1 (stereo not given)"
  value_kind: "RP-LC retention time"
  recorded_measurement: "885 s"
- molecule: "CSc1ccc(-c2nc3cnccn3c2Nc2ccc(C(N)=O)cc2)cc1"
  value_kind: "RP-LC retention time"
  recorded_measurement: "658 s"
- molecule: "COc1ccc(S(=O)(=O)N2CCCC(C(=O)NC3CC3)C2)cc1Cl (stereo not given)"
  value_kind: "RP-LC retention time"
  recorded_measurement: "780 s"
- molecule: "Cc1ccc(S(=O)(=O)N2CC3CN(C(=O)c4cccn4C)CC(C2)O3)cc1"
  value_kind: "RP-LC retention time"
  recorded_measurement: "807 s"
- molecule: "Cc1c(C(=O)N2CCCC(C)C2)sc2ncn(CC(=O)N3CC(C)CC(C)C3)c(=O)c12 (stereo not given)"
  value_kind: "RP-LC retention time"
  recorded_measurement: "966 s"
- molecule: "COCc1nc2cccnc2n1C1CCN(C(=O)Nc2ccc3c(c2)OCO3)CC1"
  value_kind: "RP-LC retention time"
  recorded_measurement: "658 s"
- molecule: "Cc1ccc2oc(N3CCN(C(=O)Cc4ccccc4)CC3)nc2n1"
  value_kind: "RP-LC retention time"
  recorded_measurement: "620 s"
- molecule: "CCc1cccc(NC(=O)N(C)CC2CCOC2)c1 (stereo not given)"
  value_kind: "RP-LC retention time"
  recorded_measurement: "739 s"
- molecule: "Cc1ccc(S(=O)(=O)NCCc2cn(CC(C)C)c3ncccc23)cc1C"
  value_kind: "RP-LC retention time"
  recorded_measurement: "978 s"
- molecule: "COc1ccc(-c2cc(N3CCN(C(=O)c4c(F)cccc4Cl)CC3)ncn2)cc1"
  value_kind: "RP-LC retention time"
  recorded_measurement: "612 s"
- molecule: "O=C(NCCCN1CCCCCC1)C1CCCN(c2nn3c(=O)c4c(nc3s2)CCCC4)C1 (stereo not given)"
  value_kind: "RP-LC retention time"
  recorded_measurement: "592 s"
- molecule: "Cc1cc(C)cc(N2CCC(NC(=O)CC(C)(C)C)C2=O)c1 (stereo not given)"
  value_kind: "RP-LC retention time"
  recorded_measurement: "877 s"
- molecule: "O=C(Cc1nnc(-c2ccc3ncccc3c2)o1)Nc1cccc(C(F)(F)F)c1"
  value_kind: "RP-LC retention time"
  recorded_measurement: "802 s"
- molecule: "O=C(NC1CCCC1)N1c2ccccc2CC1c1nc(C2CC2)no1 (stereo not given)"
  value_kind: "RP-LC retention time"
  recorded_measurement: "972 s"
- molecule: "Cc1nnc(-c2coc(S(=O)(=O)N3CCC(Cc4ccccc4)CC3)c2)o1"
  value_kind: "RP-LC retention time"
  recorded_measurement: "1010 s"
- molecule: "COc1ccc(-c2nc3cnccn3c2Nc2ccc(C)c(Cl)c2)cc1OC"
  value_kind: "RP-LC retention time"
  recorded_measurement: "878 s"
- molecule: "O=C(c1csc(N2CCCC2)n1)N1CCCC1"
  value_kind: "RP-LC retention time"
  recorded_measurement: "657 s"
- molecule: "Cc1ccc(NC(=O)N2CCC(CC(=O)N3CCCCC3)CC2)cc1C"
  value_kind: "RP-LC retention time"
  recorded_measurement: "793 s"
- molecule: "Cc1cc(N2CCCC2)n2nc(CN3CCN(c4ccccn4)CC3)nc2n1"
  value_kind: "RP-LC retention time"
  recorded_measurement: "553 s"
- molecule: "COc1ccc(OC)c(NC(=O)c2cc(NC(=O)C3CCC3)cc3nc(C)ccc23)c1"
  value_kind: "RP-LC retention time"
  recorded_measurement: "682 s"
- molecule: "CCOCC(=O)N1CCC2(CC1)C(=O)N(C)c1ccccc12"
  value_kind: "RP-LC retention time"
  recorded_measurement: "694 s"
- molecule: "COc1ccc(CC(C)(O)CNC(=O)c2cccc(C(F)(F)F)c2)cc1 (stereo not given)"
  value_kind: "RP-LC retention time"
  recorded_measurement: "823 s"
- molecule: "Nc1c(C(=O)Nc2nc(-c3ccccc3)cs2)sc2nc3c(cc12)CCCCC3"
  value_kind: "RP-LC retention time"
  recorded_measurement: "1170 s"
- molecule: "O=C(CCc1cc(Cl)no1)N1CCC(c2nc(C3CCOCC3)no2)C1 (stereo not given)"
  value_kind: "RP-LC retention time"
  recorded_measurement: "701 s"
- molecule: "Cc1cc(-c2nnc(-c3ccco3)o2)c(C)n1CC(=O)NCc1ccc(Cl)cc1"
  value_kind: "RP-LC retention time"
  recorded_measurement: "637 s"
- molecule: "COCc1nc(-c2ccc(OC3CN(Cc4ccsc4)C3)cc2)no1"
  value_kind: "RP-LC retention time"
  recorded_measurement: "656 s"
- molecule: "Cc1cc(Cl)ccc1NC(=O)c1cnc(-c2ccccc2)nc1-c1ccncc1"
  value_kind: "RP-LC retention time"
  recorded_measurement: "956 s"
- molecule: "Cc1c(-c2ccccc2)nc2ccccc2c1C(=O)N1CCN(c2ncccn2)CC1"
  value_kind: "RP-LC retention time"
  recorded_measurement: "636 s"
- molecule: "CCOC(=O)c1c(C)c(C(=O)C(C)N(Cc2ccc(F)cc2)C(=O)CC)c(C)n1CC (stereo not given)"
  value_kind: "RP-LC retention time"
  recorded_measurement: "1080 s"
- molecule: "Nc1ccc(SCC(=O)Nc2nc(-c3ccccc3)cs2)cc1"
  value_kind: "RP-LC retention time"
  recorded_measurement: "817 s"
- molecule: "COCCCNC(=O)c1nn(-c2ccc(Cl)cc2)c2c(=O)n(C)cnc12"
  value_kind: "RP-LC retention time"
  recorded_measurement: "716 s"
